Molecular target: T1, PUF4 RNA-binding domain (Saccharomyces cerevisiae, UniProt P25339 537-888)
T1 sequence: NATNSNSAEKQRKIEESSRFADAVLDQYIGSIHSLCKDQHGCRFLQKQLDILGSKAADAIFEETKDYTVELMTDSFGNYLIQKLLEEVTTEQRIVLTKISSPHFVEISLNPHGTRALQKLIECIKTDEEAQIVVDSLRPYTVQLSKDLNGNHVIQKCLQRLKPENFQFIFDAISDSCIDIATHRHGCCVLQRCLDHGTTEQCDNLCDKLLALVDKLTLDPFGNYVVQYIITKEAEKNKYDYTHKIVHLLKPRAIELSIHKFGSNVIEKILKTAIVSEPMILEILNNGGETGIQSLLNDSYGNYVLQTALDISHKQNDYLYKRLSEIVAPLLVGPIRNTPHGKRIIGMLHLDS
Assay: Mg; RNA-MaP; 20 mM Na-HEPES pH 7.4, 30 mM KOAc, 0.75 mM MgCl2, 0.1% Tween-20, 5% glycerol, 0.1 mg/mL BSA, 2 mM DTT; 25 C; 0.0125-409.6 nM protein
Settings: tags: N-His6-TEV cleaved; C-SNAP kept, Cy3B-labelled; label: tethered on chip by stalled RNA polymerase
Entries and their pKd values follow.
pKd is a log-scale quantity: -log10 of the concentration expressed in molar.

Reference set, count: 3
UCUCUUUGUAAUCAUCUCUCUU (ssRNA) [Ic_S1_P5E.1_K5.1_C5.1_H5.1_A5.1_[T5A]_[A7C]_F5.1_[T8A]_[A10C]_T5.1] = 6.32
UCUCUUUGUAAUCUGAUCUCUU (ssRNA) [Ic_S1_P5E.1_K5.1_C5.1_H5.1_A5.1_[T5A]_[A7C]_F5.1_[T9G]_T5.1] = 7.08
Ie_S4_P5E.1_K5.1_C5.1_H5.1_[+3TTCC]_A5.1_F5.1_T5.1 (ssRNA) RNA: UUUGACAACUGAUCGUUCUUUCUUGUUUCCAUUAUUAUUCUUUCUCGAUCAGUUGUCUUU = 7.35

*Q* Which measured pKd value corresponds to UCUCUUUGUGUAUAUUAUUUCUCUU (ssRNA) [Id_ii_S1_P4E.2_K4.1_C4.2_[C-2T]_[T-1G]_H4.1_A4.1_F4.1_T4.2_[G10T]] ?
*A* 9.07

*Q* Moving on to UCUCUUUGUAUUUUUCUCUU (ssRNA) [Ib_S1_P3E.1_K3.1_C3.1_H3.1_A3.1_[A6T]_F3.1_[A8T]_T3.1]
*A* 7.58

*Q* Moving on to UCUCUUUGUACGUGCUCUCUU (ssRNA) [Ic_S1_P4E.1_K4.1_C4.1_H4.1_A4.1_[T5C]_[A6G]_F4.1_[T8G]_[A9C]_T4.1]
*A* 6.33

Where these numbers come from: paper PMC9352680
